Entry source: patent US20230073274A1

subject_of_test: human properdin (human, UniProt P27918 28-469)
Sequence (P27918 28-469 limits assumed): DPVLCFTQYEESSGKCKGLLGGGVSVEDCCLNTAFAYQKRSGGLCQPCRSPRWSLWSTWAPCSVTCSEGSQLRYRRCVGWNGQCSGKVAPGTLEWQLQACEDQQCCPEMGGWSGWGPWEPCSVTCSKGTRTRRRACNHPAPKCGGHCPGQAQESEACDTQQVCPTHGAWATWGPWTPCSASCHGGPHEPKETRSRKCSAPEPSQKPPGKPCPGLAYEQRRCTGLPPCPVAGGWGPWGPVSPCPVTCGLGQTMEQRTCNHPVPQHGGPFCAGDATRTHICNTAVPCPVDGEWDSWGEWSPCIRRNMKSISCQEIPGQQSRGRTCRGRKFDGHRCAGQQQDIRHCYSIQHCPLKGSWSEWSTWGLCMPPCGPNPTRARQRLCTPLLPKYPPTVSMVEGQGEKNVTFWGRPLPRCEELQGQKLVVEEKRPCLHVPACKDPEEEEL
assay_overview: ELISA, human properdin coated on plate
readout_name: Binding Affinity (pM)
Numeric answer only, unit pM assumed.

binder: NMT17 (antibody, V domains shown) VH: EVQLVQSGAEVKKPGASVKVSCKASGYIFTNYPIHWVRQAPGQGLEWMGFIDPGGGYDEPDERFRDRVTMTADTSTSTAYMELSSLRSEDTAVYYCARRGGGYYLDYWGQGTTVTVSS VL: DIQMTQSPSSLSASVGDRVTITCRASQDISFFLNWYQQKPGKAPKLLIYYTSRYHSGVPSRFSGSGSGTDFTLTISSLQPEDFATYYCQHGSTLPWTFGQGTKLEIK
numeric_value: 283

Continue with the binder presented below.
I'd like to know its Binding Affinity. The binder in question is NMT20 (antibody, V domains shown) VH: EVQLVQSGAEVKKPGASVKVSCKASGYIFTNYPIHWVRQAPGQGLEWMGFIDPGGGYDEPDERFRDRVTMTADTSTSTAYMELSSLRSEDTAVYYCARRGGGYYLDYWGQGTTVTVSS VL: DIQMTQSPSSLSASVGDRVTITCRASQDISFFLNWYQQKPGKAPKLLIYYTSRYHSGVPSRFSGSGSGTDFTLTISSLQPEDFATYYCQHGSTLPYTFGQGTKLEIK
297
